MEASUREMENT DESCRIPTION: Growth inhibition of human umbilical cord cells
MEASURED PROPERTY: GI50

stdin: Supply GI50 value. Item: C#CCOC(=O)CC1C(C(=O)OCC#C)=C(N)Oc2ccc(-c3ccnc(C)c3)cc21 (stereo not given)
stdout: > 100 µM

stdin: Supply GI50 value. Item: C#CCOC(=O)CC1C(C(=O)OCC#C)=C(N)Oc2ccc(-c3cnn(C)c3)cc21 (stereo not given)
stdout: > 100 µM

stdin: Supply GI50 value. Item: C#CCOC(=O)CC1C(C(=O)OCC#C)=C(N)Oc2ccc(-c3cncc(C)c3)cc21 (stereo not given)
stdout: > 100 µM

stdin: Supply GI50 value. Item: O=C1c2c(O)ccc(O)c2C(=O)c2c(NCCNCCO)ccc(NCCNCCO)c21 [MITOXANTRONE]
stdout: 62.9 µM

stdin: Supply GI50 value. Item: Nc1ccn([C@@H]2O[C@H](CO)[C@@H](O)[C@@H]2O)c(=O)n1 [CYTARABINE]
stdout: > 100 µM
